The origin of these recorded values is patent US9980943B2.

# Tested on: α7 integrin (LacZ reporter in α7βgal+/− myoblasts)
# assay_comment: Myoblast α7+/LacZ integrin FDG assay (Burkin assay in myoblasts, 96-well)
# Assay type: cell-based, mouse
# run_parameters: 10 uM; α7+/LacZ myoblasts, 96-well
Each entry below lists one item and its recorded Burkin Assay in Myoblasts, value relative to DMSO value.
The response must contain the number and no unit.

Known results for compounds:
compound	recorded_measurement
O=C(Nc1ccccc1)Nc1ccc(Cl)c(S(=O)(=O)N2CCOCC2)c1 [MLS000773700-01]	0.8657
Cc1cccc(OCc2nc(C#N)c(N3CCCC3)o2)c1 [MLS000332693-01]	1.095
N/C(=N\OC(=O)COc1cc(Cl)c(Cl)cc1Cl)c1ccncc1 [MLS000625140-01]	0.7833

# evaluate next
**Q:** Form entry - test system: α7 integrin (LacZ reporter in α7βgal+/− myoblasts); read-out: Burkin Assay in Myoblasts, value relative to DMSO; compound: NC(=O)c1nsc(C(=O)N(c2ccccc2)C(C(=O)NCc2ccc(F)cc2)c2ccc(O)cc2)c1N (stereo not shown) [MLS001219621-01]
**A:** 0.7542

====

# Test system: β-galactosidase in CMV-LacZ C2C12 myotubes
# assay_comment: CMV-LacZ secondary screen in C2C12 myotubes (β-Gal stabilizing assay)
# Assay type: cell-based, mouse
# run_parameters: 5 uM; C2C12 CMV-LacZ myotubes; fold relative to DMSO
Label T when CMV-LACZ in Myotubes, signal relative to DMSO >= 0.9; otherwise F.

Solved entries (count: 3):
compound	measurement_target	category
CC1CCCCN1c1ncnc(N)c1[N+](=O)[O-] (centres unmarked) [MLS000683234-01]	β-galactosidase in CMV-LacZ C2C12 myotubes	F
COc1ccccc1NS(=O)(=O)c1cc(NC(=O)c2ccc(Cl)nc2)ccc1N1CCCC1 [MLS002248819-01]	β-galactosidase in CMV-LacZ C2C12 myotubes	T
CC1Cc2ccccc2N1C(=O)CSc1nnc(N)s1 (centres unmarked) [MLS001160611-01]	β-galactosidase in CMV-LacZ C2C12 myotubes	F

**Q:** Does the compound CCc1nc2ccccc2c(C(=O)NCc2ccccc2)c1C [MLS000688267-01] have recorded CMV-LACZ in Myotubes, signal relative to DMSO that is 0.9 or more?
**A:** T

====

Each entry below lists one item and its recorded EC50 value.
# Tested on: α7 integrin (LacZ reporter in α7+/LacZ myotubes)
# assay_comment: Myotube α7 integrin FDG assay (Burkin assay in myotubes, 96-well)
# Format: cell-based, mouse
# run_parameters: myotubes; nonlinear regression of dose-response curves; read-out: EC50 α7+/LacZ MT
// return numeric value only (unit: µM, not printed)

Known results for compounds:
compound	EC50 / µM
CN(C)c1ccnc2sc(C(N)=O)c(N)c12 [MLS000532969]	2.2
O=C(Nc1ccc(N2CCN(C(=O)c3ccccc3F)CC2)cc1)c1cncc(Br)c1 [MLS001060533]	4.7

# evaluate next
**Q:** Given Nc1ncnc(N2CCc3ccccc32)c1[N+](=O)[O-] [MLS000683232-01] , state its recorded EC50.
**A:** 5.3

====

# Tested on: β-galactosidase in CMV-LacZ C2C12 myotubes
# assay_comment: CMV-LacZ secondary screen in C2C12 myotubes (β-Gal stabilizing assay)
# Type: cell-based, mouse
# run_parameters: 20 uM; C2C12 CMV-LacZ myotubes; fold relative to DMSO
recorded_metric: CMV-LACZ in Myotubes, signal relative to DMSO
The response must contain the number and no unit.

**Q:** Given CCOC(=O)C1=C(CC)Nc2ccccc2N=C1NC(=O)c1ccc(OC)c(S(=O)(=O)N2CCCCC2C)c1 (centres unmarked) [MLS000776409-01] , state its recorded CMV-LACZ in Myotubes, signal relative to DMSO.
**A:** 1.1040

**Q:** Now try CC(=O)Nc1nonc1-c1nc2ccccc2n1CCC(C)C [MLS000085522-01] .
**A:** 0.7733

**Q:** Now try Cc1ccccc1-n1c(Cc2cccs2)n[nH]c1=S [MLS000568234-01] .
**A:** 0.9918

**Q:** Now try Cc1ccccc1C(=O)Nc1nnc(SC(C)C)s1 [MLS000683174-01] .
**A:** 1.035

**Q:** Now try COc1ccc(C)cc1NC(=O)c1ccc2c(O)c(S(=O)(=O)c3ccccc3)c(=O)[nH]c2c1 [MLS001122718-01] .
**A:** 0.9567

**Q:** Now try CCOc1ccccc1NC(=O)c1cccc2c1C(=O)N(C1CCCCC1)C2 [MLS000912726-01] .
**A:** 1.2060

**Q:** Now try Cc1ccc(NS(=O)(=O)c2ccc3c(c2)NC(=O)CCS3)c(Br)c1 [MLS001095231-01] .
**A:** 0.9181

**Q:** Now try Cc1ccc(NC(=O)COc2ccccc2CNC(C)(C)CC(C)(C)C)cc1 [MLS000538580-01] .
**A:** 0.3838

**Q:** Now try COc1cc([N+](=O)[O-])cc(/C=N/NC(=O)C(O)(c2ccccc2)c2ccccc2)c1O [MLS001183575-01] .
**A:** 0.8230

**Q:** Now try C#CC1(O)CCC2C3CCC4=C/C(=N/OCC(=O)NCC(=O)NC(C(=O)O)C(C)C)CC[C@]4(C)C3CC[C@@]21C (some centres unmarked) [MLS001163859-01] .
**A:** 1.0965

**Q:** Now try Cc1ccc(C(=O)N2CCN(S(=O)(=O)N3CCOCC3)CC2)cc1 [MLS000663185-01] .
**A:** 0.9540

**Q:** Now try CCC(C)n1[nH]c(=O)cc1N (centres unmarked) [MLS000073150-01] .
**A:** 0.9750

**Q:** Now try O=C1CCC(C(=O)N2CCSCC2)CN1Cc1ccc(Cl)cc1 (centres unmarked) [MLS001090787-01] .
**A:** 0.8990

**Q:** Now try CCC(=O)c1ccc(OCC(O)CN2CC(C)OC(C)C2)cc1.O=C(O)C(=O)O (centres unmarked) [MLS000053342-01] .
**A:** 1.3044

**Q:** Now try COc1ccc(N2CCN(CCC3Oc4cc([N+](=O)[O-])ccc4NC3=O)CC2)cc1 (centres unmarked) [MLS000696445-01] .
**A:** 1.122

**Q:** Now try O=C(Nc1ccc(Oc2cccnc2)cc1)c1ccccc1Cl [MLS000574647-01] .
**A:** 0.962

**Q:** Now try CCOCCCN1C(=O)CN(C2CCCCCC2)C(=O)C1c1ccc(OC)cc1 (centres unmarked) [MLS000046123-01] .
**A:** 1.145

**Q:** Now try CNC(=S)N1CCC(NC(=O)C(Cc2ccc(F)cc2)NC(C)=O)CC1 (centres unmarked) [MLS000710130-01] .
**A:** 0.9864

**Q:** Now try O=C(CSc1nnc2c(n1)[nH]c1ccccc12)NCc1ccccc1F [MLS001225512-01] .
**A:** 1.2482
